Values compiled from ChEMBL document CHEMBL4765284.

Tested on: Cytomegalovirus
PROCEDURE TEXT: Antiviral activity against CMV infected in FlpIn-HEK293 cells assessed as click beetle green reporter driven gene expression incubated for 72 hrs by luciferase based cellular assay
Format: functional, organism-based
CONDITION: HEK293, 72 h
pEC50: −log10 of the molar value.
Please use 1 (yes) whenever pEC50 is not below 5, and 0 (no) whenever it is.

Query: // inclusive: pEC50 at least 5? input: Cc1cnc(NC(=O)N2CCN(c3cnc(Cl)c(Cl)c3)CC2)s1
Response: 1 (yes)

====

PROCEDURE TEXT: Metabolic stability in mouse liver microsomes assessed as half life at 1 uM measured upto 60 mins by LC-MS anlaysis
Type: ADME, Microsome
READOUT: half-life at 1 µM (min)
Could you give me the number in min? Just the number is fine.

>  <MOLECULE>
Cc1ccc(N2CCN(C(=O)Nc3ncc(Cl)s3)CC2=O)cc1Cl

>  <UNIT INFO>
min

>  <half-life at 1 µM>
60

$$$$
>  <MOLECULE>
Cc1cnc2[nH]c(N3CCN(c4ccc(C)c(Cl)c4)CC3)nc2c1

>  <UNIT INFO>
min

>  <half-life at 1 µM>
8

$$$$
>  <MOLECULE>
Clc1cnc2[nH]c(CCCOc3cnc(Cl)c(Cl)c3)nc2c1

>  <UNIT INFO>
min

>  <half-life at 1 µM>
14

$$$$
>  <MOLECULE>
Cc1cnc(NC(=O)CCCOc2ccc(Cl)c(C)c2)s1

>  <UNIT INFO>
min

>  <half-life at 1 µM>
2

$$$$

Query: # get_value(readout='half-life at 1 µM', item= Cc1ccc(N2CCN(C(=O)Nc3ncc(Cl)s3)CC2)cc1Cl )
Response: 33

Query: # get_value(readout='half-life at 1 µM', item= N#Cc1cnc(NC(=O)N2CCN(c3cnc(Cl)c(Cl)c3)CC2)s1 )
Response: 80

Query: # get_value(readout='half-life at 1 µM', item= O=C(Nc1ncc(Cl)s1)N1CCN(c2cnc(Cl)c(Cl)c2)CC1 )
Response: 55

Query: # get_value(readout='half-life at 1 µM', item= Cc1cc(NC2CCN(C(=O)Nc3ncc(Cl)s3)C2)ccc1Cl (stereo not drawn) )
Response: 11

Query: # get_value(readout='half-life at 1 µM', item= Clc1cnc2[nH]c(N3CCN(c4cnc(Cl)c(Cl)c4)CC3)nc2c1 )
Response: 13

====

System: Cytomegalovirus
PROCEDURE TEXT: Antiviral activity against CMV infected in FlpIn-HEK293 cells assessed as click beetle green reporter driven gene expression incubated for 72 hrs by luciferase based cellular assay
Assay type: functional, organism-based
CONDITION: HEK293, 72 h
READOUT: pEC50
Notebook: values listed as pEC50 are -log10 of the concentration (mol/L).

>  <MOLECULE>
Cc1ccc(N2CCCN(C(=O)Nc3ncc(Cl)s3)CC2)cc1Cl

>  <pEC50>
4.72

$$$$

Query: What is its pEC50 for Cytomegalovirus? Entry: Cc1ccc(N2CCN(C(=O)Nc3ncc(Cl)s3)CC2=O)cc1Cl
Response: 4.89

Query: What is its pEC50 for Cytomegalovirus? Entry: Cc1cc(OC2CCN(C(=O)Nc3ncc(Cl)s3)C2)ccc1Cl (stereo unspecified)
Response: 5.60

Query: What is its pEC50 for Cytomegalovirus? Entry: Cc1cnc(NC(=O)N2CC(Oc3ccc(C)c(Cl)c3)C2)s1
Response: 5.72

Query: What is its pEC50 for Cytomegalovirus? Entry: O=C(Nc1ncc(Cl)s1)N1CCN(c2cnc(Cl)c(Cl)c2)CC1
Response: 7.15

Query: What is its pEC50 for Cytomegalovirus? Entry: Cc1cnc(NC(=O)N2CC(Nc3ccc(C)c(Cl)c3)C2)s1
Response: 5.52

Query: What is its pEC50 for Cytomegalovirus? Entry: Cc1ccc(N2CCN(C(=O)Nc3ncc(Cl)s3)C(C)C2)cc1Cl (stereo unspecified)
Response: 5.82

Query: What is its pEC50 for Cytomegalovirus? Entry: Cc1ccc(N2CC3(CN(C(=O)Nc4ncc(Cl)s4)C3)C2)cc1Cl
Response: 4.72

Query: What is its pEC50 for Cytomegalovirus? Entry: Cc1cnc2[nH]c(CCCOc3ccc(Cl)c(Cl)c3)nc2c1
Response: 4.55
